Measurement Parameters: 298.15 K; 101.3 kPa; Liquid; Pulse-echo method
Measured Quantity: speed of sound (m/s)

{"Compound": "CCCCCCCCO [octan-1-ol]", "speed of sound, m/s": 1347.6}
{"Compound": "COCCO [2-methoxyethan-1-ol]", "speed of sound, m/s": 1343.5}
{"Compound": "CCCCCCCCCCO [decan-1-ol]", "speed of sound, m/s": 1379.9}
{"Compound": "CCCCCCO [hexan-1-ol]", "speed of sound, m/s": 1303.2}
